experimental-target: Muscarinic acetylcholine receptor M1 (Rattus norvegicus)
assay-details: qHTS Assay for Antagonists of Acetylcholine Muscarinic M1 Receptor: Measurement of IP-One Response (AID 944); further: nearly all actives have a fitted effect of over 75% in size
experimental-context: CHO-M1 cells, IP-One HTRF, antagonist mode; series mostly up to 46.1 µM
Records with an inconclusive call do not appear. The source made the active and inactive calls. The call rests on the fitted dose curve; in most records, active means well fitted inhibition curve with a large enough effect; inconclusive means small, poorly fitted or top-dose-only effect; inactive means no such curve, though single readings can be large or run the other way.
Response enum: 1 (yes) (active), 0 (no) (inactive)

{"smiles-input": "CNCCCC1c2ccccc2C=Cc2ccccc21", "experimental-target": "Muscarinic acetylcholine receptor M1 (Rattus norvegicus)", "cat": "1 (yes)"}
{"smiles-input": "CC1=C(CC(=O)O)c2cc(F)ccc2/C1=C\\c1ccc(S(C)(=O)=O)cc1", "experimental-target": "Muscarinic acetylcholine receptor M1 (Rattus norvegicus)", "cat": "0 (no)"}
{"smiles-input": "CCN(CC)CCNC(=O)c1cc(Cl)c(N)cc1OC", "experimental-target": "Muscarinic acetylcholine receptor M1 (Rattus norvegicus)", "cat": "0 (no)"}
{"smiles-input": "C=Cc1c(C)c2cc3[nH]c(cc4nc(cc5nc(cc1[nH]2)C(C)=C5CCC(=O)O)C(CCC(=O)O)=C4C)c(C)c3C=C", "experimental-target": "Muscarinic acetylcholine receptor M1 (Rattus norvegicus)", "cat": "0 (no)"}
{"smiles-input": "Nc1cc(=O)[nH]c(N)n1", "experimental-target": "Muscarinic acetylcholine receptor M1 (Rattus norvegicus)", "cat": "0 (no)"}

Switching to the query record.
Asked: Hey, what did the test say about COc1ccc(Cl)cc1C(=O)NCCc1ccc(S(=O)(=O)NC(=O)NC2CCCCC2)cc1 ?
Given back: 0 (no)

----------
Test system: Tov112D
assay-details: Primary qHTS to identify gynecologic anti-cancer compounds using libraries of approved drugs and bioactive compounds (AID 1345084); further: on the % scale 0 is the no-effect control and ±100 the full control effect; nearly all actives have a fitted effect of over 55% in size
experimental-context: Gynecologic cancer cell panel viability, ATPlite luminescence, 48 h; series mostly up to 57.5 µM
Inconclusive results are not listed. Activity calls are given as the source filed them. The call rests on the fitted dose curve; in most records, active means well fitted cell-killing curve with a large enough effect; inconclusive means small, poorly fitted or top-dose-only effect, or effect the other way; inactive means flat fitted curve, though single readings scatter.
quantity-name: activity change, negative = cytotoxicity

Consider the reported activity change, negative = cytotoxicity for these compounds:
{"compound": "C[C@]12CC[C@@H]3c4ccc(O)cc4CC[C@H]3[C@@H]1CC[C@@H]2OC(=O)CCC1CCCC1", "quantity-name": "activity change, negative = cytotoxicity", "result": "inactive"}
{"compound": "COc1cc(C(=O)N2CCOCC2)cc(OC)c1OC", "quantity-name": "activity change, negative = cytotoxicity", "result": "inactive"}
{"compound": "CSc1ccc2c(c1)C(N1CCN(C)CC1)Cc1ccccc1S2 (centres undefined)", "quantity-name": "activity change, negative = cytotoxicity", "result": "inactive"}
{"compound": "CC(C)(O)c1ccccc1CC[C@@H](SCC1(CC(=O)O)CC1)c1cccc(/C=C/c2ccc3ccc(Cl)cc3n2)c1", "quantity-name": "activity change, negative = cytotoxicity", "result": "inactive"}
{"compound": "CC(C(O)c1ccc(O)cc1)N1CCC(Cc2ccccc2)CC1 (centres undefined)", "quantity-name": "activity change, negative = cytotoxicity", "result": "inactive"}

Each compound below has a reported value. Please supply its activity change, negative = cytotoxicity.
1. C[C@@H]1CC[C@@]2(OC1)O[C@H]1C[C@H]3[C@@H]4CC[C@H]5C[C@@H](O)CC[C@]5(C)[C@H]4CC(=O)[C@]3(C)[C@H]1[C@@H]2C
2. CC(=O)NC(Cc1ccccc1)C(=O)O (centres undefined)
3. CC1=C(/C=C/C(C)=C/C=C/C(C)=C/C(=O)O)C(C)(C)CCC1

Given back:
10.1% [at 6.55 µM] (inactive)
inactive
inactive

Data point: CCCCc1ncc(/C=C(\Cc2cccs2)C(=O)O)n1Cc1ccc(C(=O)O)cc1 ; activity change, negative = cytotoxicity = inactive

----------
experimental-target: Luciferin 4-monooxygenase (Photinus pyralis) (UniProt P08659)
Sequence (P08659 whole entry, looked up): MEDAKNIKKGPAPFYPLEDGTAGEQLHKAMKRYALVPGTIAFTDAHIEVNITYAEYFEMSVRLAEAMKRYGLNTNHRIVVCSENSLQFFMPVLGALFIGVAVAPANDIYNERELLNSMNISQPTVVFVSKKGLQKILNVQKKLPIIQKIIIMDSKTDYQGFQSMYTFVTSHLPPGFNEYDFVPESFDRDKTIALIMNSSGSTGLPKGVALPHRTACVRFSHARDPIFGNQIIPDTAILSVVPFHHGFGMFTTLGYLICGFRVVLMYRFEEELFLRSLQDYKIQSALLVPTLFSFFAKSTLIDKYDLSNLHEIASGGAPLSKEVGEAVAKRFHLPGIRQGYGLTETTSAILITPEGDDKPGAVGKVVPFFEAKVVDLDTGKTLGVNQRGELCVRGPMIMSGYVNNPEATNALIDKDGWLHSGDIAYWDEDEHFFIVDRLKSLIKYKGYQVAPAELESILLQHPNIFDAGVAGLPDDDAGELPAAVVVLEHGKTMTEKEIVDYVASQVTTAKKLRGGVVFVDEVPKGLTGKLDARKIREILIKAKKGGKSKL
assay-details: Biochemical firefly luciferase enzyme assay for NPC (AID 624030);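 further: purified P. pyralis luciferase at 10 nM with luciferin and ATP substrate; 0% = DMSO and -100% = full luciferase inhibition by PTC124 control; nearly all actives have a fitted effect of over 70% in size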
experimental-context: purified P. pyralis luciferase, luminescence, 5 min; series mostly up to 58.6 µM
Records with an inconclusive call do not appear. Calls of active or inactive are those of the source. The call rests on the fitted dose curve; in most records, active means well fitted inhibition curve with a large enough effect; inconclusive means small, poorly fitted or top-dose-only effect; inactive means flat fitted curve, though single readings scatter.
quantity-name: outcome

{"compound": "CC[N+](CC)(CC)CCOc1ccc(/C=C/c2ccccc2)cc1", "outcome": "inactive"}
{"compound": "O=S(=O)(O)NC1CCCCC1", "outcome": "inactive"}
{"compound": "COc1cc(C)c(Cc2cnc(N)nc2N)cc1OC", "outcome": "inactive"}
{"compound": "CN1CCN(C2Cc3ccccc3Sc3ccc(Cl)cc32)CC1 (configuration not stated)", "outcome": "inactive"}
{"compound": "Nc1ncnc2c1ncn2[C@@H]1O[C@H](CO)[C@@H](O)[C@H]1O", "outcome": "inactive"}
{"compound": "O=C(CCCN1CCN(c2ccccn2)CC1)c1ccc(F)cc1", "outcome": "inactive"}

We now examine a further compound.
Data point: O=Cc1ccccc1C=O ; outcome = inactive

----------
assay-details: qHTS of pediatric cancer cell lines to identify multiple opportunities for drug repurposing: Primary screen for MG 63 (6-TG R) cells (AID 1347105); further: on the % scale 0 is the no-effect control and ±100 the full control effect; nearly all actives have a fitted effect of over 50% in size
experimental-context: MG 63 (6-TG R) viability, CellTiter-Glo, 48 h; series mostly up to 46 µM
Results filed as inconclusive are left out. Active and inactive are the calls of the source. Calls follow the shape of the dose curve; as a rule, active = well fitted cell-killing curve with a large enough effect; inconclusive = small, poorly fitted or top-dose-only effect; inactive = no such curve, though single readings can be large or run the other way.
quantity-name: activity change, negative = cytotoxic

Consider the reported activity change, negative = cytotoxic for these molecules:
{"molecule": "c1ccc2c(CC3=NCCN3)cccc2c1", "activity change, negative = cytotoxic": "inactive"}
{"molecule": "CCn1cc(C(=O)O)c(=O)c2cnc(N3CCNCC3)nc21", "activity change, negative = cytotoxic": "inactive"}
{"molecule": "O=c1cc[nH]c(=S)[nH]1", "activity change, negative = cytotoxic": "inactive"}
{"molecule": "N[C@H]1C(O)O[C@H](CO)[C@@H](O)[C@@H]1O (stereo partly drawn)", "activity change, negative = cytotoxic": "inactive"}
{"molecule": "CCC(=O)c1ccc(O)cc1", "activity change, negative = cytotoxic": "inactive"}
{"molecule": "O=C(O)[C@H](O)c1ccccc1", "activity change, negative = cytotoxic": "inactive"}

Each molecule below has a reported value. Please supply its activity change, negative = cytotoxic.
1. CCOC(=O)[C@H](CCc1ccccc1)N[C@@H](C)C(=O)N1C(=O)N(C)C[C@H]1C(=O)O
2. O=S(=O)(O)c1cc(I)c(O)c2ncccc12
3. Cc1cc(CC(=O)O)n(C)c1C(=O)c1ccc(Cl)cc1
4. CC1(C)CO[C@@H](CC(=O)O)CN1
5. NS(=O)(=O)c1cc2c(cc1Cl)NC(CSCc1ccccc1)=NS2(=O)=O
6. O=C1c2c(O)cccc2Cc2cccc(O)c21

Given back:
1. inactive
2. inactive
3. inactive
4. inactive
5. inactive
6. inactive

Data point: CC(=O)CCC(=O)O ; activity change, negative = cytotoxic = inactive

----------
assay-details: qHTS of pediatric cancer cell lines to identify multiple opportunities for drug repurposing: Primary screen for SK-N-MC cells (AID 1347093);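 further: plate controls were DMSO neutral control for no effect and bortezomib for full effect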
experimental-context: SK-N-MC viability, CellTiter-Glo luminescence, 48 h; series mostly up to 46 µM
Inconclusive results are not listed. The source made the active and inactive calls. Calls come from the whole dose curve; as a rule, active = well fitted cell-killing curve with a large enough effect; inconclusive = small, poorly fitted or top-dose-only effect; inactive = no such curve, though single readings can be large or run the other way.
Response enum: True (active), False (inactive)

Asked: Hey, what did the test say about CCCCCCCCCCCCOS(=O)(=O)O ?
Given back: False

Asked: Hey, what did the test say about CCCOC(=O)c1ccccc1 ?
Given back: False

Asked: Hey, what did the test say about CCCCN(CCCC)CCCOC(=O)c1ccc(N)cc1 ?
Given back: False

----------
assay-details: qHTS of pediatric cancer cell lines to identify multiple opportunities for drug repurposing: Primary screen for LAN-5 cells (AID 1347100);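 further: plate controls were DMSO neutral control for no effect and bortezomib positive control for full effect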
experimental-context: LAN-5 neuroblastoma viability, CellTiter-Glo luminescence, 48 h; series mostly up to 46 µM
Records with an inconclusive call do not appear. The source made the active and inactive calls. Calls come from the whole dose curve; as a rule, active = well fitted cell-killing curve with a large enough effect; inconclusive = small, poorly fitted or top-dose-only effect; inactive = no such curve, though single readings can be large or run the other way.
quantity-name: activity change, negative = cytotoxic

{"molecule": "NS(=O)(=O)c1cc2c(cc1C(F)(F)F)NC(Cc1ccccc1)NS2(=O)=O (stereo unspecified)", "activity change, negative = cytotoxic": "inactive"}
{"molecule": "c1ccc(CN(CC2=NCCN2)c2ccccc2)cc1", "activity change, negative = cytotoxic": "inactive"}
{"molecule": "O=S(=O)(O)c1cc(I)c(O)c2ncccc12", "activity change, negative = cytotoxic": "inactive"}
{"molecule": "CC(C)C(=O)c1c(C(C)C)nn2ccccc12", "activity change, negative = cytotoxic": "inactive"}
{"molecule": "NCCNCCNCCNCCN", "activity change, negative = cytotoxic": "-15.5% [at 9.22 µM] (inactive)"}

We now examine a further molecule.
Data point: CC1=C(CC(=O)O)c2cc(F)ccc2/C1=C\c1ccc(S(C)(=O)=O)cc1 ; activity change, negative = cytotoxic = inactive

----------
experimental-target: Phenylethanolamine N-methyltransferase (Homo sapiens)
assay-details: Confirmatory Screen for Target Class Profiling of Small Molecule Inhibitors of Methyltransferases (AID 1745852)
experimental-context: MTase-Glo luminescence, SAH detection, recombinant enzyme; measured here: PNMT max response; stronger effect = lower value
quantity-name: activity (%)
Give bare numbers, in %.

{"molecule": "O=C1Nc2ccc(Cl)cc2[C@@](C#CC2CC2)(C(F)(F)F)O1", "recorded-number": -2.33}
{"molecule": "CN(C)CC[C@@H](c1ccc(Cl)cc1)c1ccccn1", "recorded-number": -1.72}
{"molecule": "CN1CCN(C2Cc3ccccc3Sc3ccc(Cl)cc32)CC1 (stereo not drawn)", "recorded-number": 8.62}
{"molecule": "COc1ccc(Cl)cc1C(=O)NCCc1ccc(S(=O)(=O)NC(=O)NC2CCCCC2)cc1", "recorded-number": -3.2}
{"molecule": "CC(C)(C)[C@]1(O)CCN2C[C@H]3c4ccccc4CCc4cccc(c43)[C@@H]2C1", "recorded-number": -4.4}
{"molecule": "NC(N)=NCCC[C@H](N)C(=O)O", "recorded-number": 6.66}
{"molecule": "Cc1cc(N)c2ccccc2[n+]1CCCCCCCCCC[n+]1c(C)cc(N)c2ccccc21", "recorded-number": 3.98}

We now examine a further molecule.
Data point: C[C@]12CC[C@@H]3c4ccc(O)cc4CC[C@H]3[C@@H]1CCC2=O ; activity = -0.307
